# system_tested: rat prostate spermidine synthase (Rattus norvegicus)
# Construct: purified spermidine synthase obtained from the rat ventral prostate; from tissue; host or cells: rat ventral prostate
# Sequence (Q99MI5 1-302): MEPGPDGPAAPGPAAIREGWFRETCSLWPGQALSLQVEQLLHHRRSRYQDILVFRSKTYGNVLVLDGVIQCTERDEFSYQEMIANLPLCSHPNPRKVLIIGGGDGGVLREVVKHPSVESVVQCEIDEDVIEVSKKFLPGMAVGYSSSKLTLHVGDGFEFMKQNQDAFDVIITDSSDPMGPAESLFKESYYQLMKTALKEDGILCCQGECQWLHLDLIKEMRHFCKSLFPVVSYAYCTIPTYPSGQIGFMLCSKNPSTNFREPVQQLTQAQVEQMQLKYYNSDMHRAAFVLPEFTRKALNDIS
# assay_info: Inhibition of purified spermidine synthase from rat ventral prostate
# Type: biochemical
assay_metric: inhibition of spermidine synthase (in words)

# molecule, measured
rows = [
    ("CCCCCC(CC)[S+](C)C[C@H]1O[C@@H](n2cnc3c(N)ncnc32)[C@H](O)[C@@H]1O (stereo partly shown)", "do not at all inhibit"),
    ("CCCCCC(CC)SC[C@H]1O[C@@H](n2cnc3c(N)ncnc32)[C@H](O)[C@@H]1O (stereo partly shown)", "do not at all inhibit"),
]

====

# system_tested: rat prostate spermidine synthase (Rattus norvegicus)
# Construct: purified spermidine synthase obtained from the rat ventral prostate; from tissue; host or cells: rat ventral prostate
# assay_info: Inhibition of purified spermidine synthase from rat ventral prostate
# Format: biochemical
# recorded_conditions: Concentration 100; dcSAM 21 μm
Parameter % Inhibition Spermidine Synthase: see the listing below.

The examples below pair each entry with its known result.
# compound, measured
data = [
    ("C[S+](C[C@H]1O[C@@H](n2cnc3c(N)ncnc32)[C@H](O)[C@@H]1O)C(CCN)CCCCCN (stereo partly shown) [IIc]", "92%"),
    ("CCCCCC(CC)SC[C@H]1O[C@@H](n2cnc3c(N)ncnc32)[C@H](O)[C@@H]1O (stereo partly shown) [Compound Ib, S-adenosyl-3-thiooctane]", "0%"),
    ("NCCCCCC(CCN)SC[C@H]1O[C@@H](n2cnc3c(N)ncnc32)[C@H](O)[C@@H]1O (stereo partly shown) [Compound Ic, S-Adenosyl-1,8-diamino-3-thiooctane]", "99%"),
]

Consider the additional compound presented here.
Lookup: Look up % Inhibition Spermidine Synthase for this compound: CCCCCC(CC)[S+](C)C[C@H]1O[C@@H](n2cnc3c(N)ncnc32)[C@H](O)[C@@H]1O (stereo partly shown) [Compound IIb, S-Adenosyl-3-methylthiooctane]
Found: 14%
